- Study system: human recombinant ALK1 (GST fused to ALK1 intracellular domain [His142-Gln503]) (Homo sapiens, UniProt P37023)
- Construct: GST fused to ALK1 intracellular domain [His142-Gln503]
- Sequence (P37023 142-503): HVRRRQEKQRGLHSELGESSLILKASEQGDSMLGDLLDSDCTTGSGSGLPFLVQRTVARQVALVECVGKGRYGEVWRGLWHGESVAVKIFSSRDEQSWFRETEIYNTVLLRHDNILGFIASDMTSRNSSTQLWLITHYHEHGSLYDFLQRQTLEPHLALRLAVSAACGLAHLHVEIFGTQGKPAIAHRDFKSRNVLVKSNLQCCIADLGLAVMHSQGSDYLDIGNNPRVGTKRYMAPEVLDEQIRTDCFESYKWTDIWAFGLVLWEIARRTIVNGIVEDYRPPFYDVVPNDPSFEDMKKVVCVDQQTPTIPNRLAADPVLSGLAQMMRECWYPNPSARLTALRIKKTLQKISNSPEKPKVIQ
- Method notes: ALK1-Kinase Flashplate-Assay
- Reported conditions: 0.5 μM ATP, biotinylated α-casein substrate; read-out: Assay 1 (ALK1-Kinase Flashplate-Assay IC50 class)
Answer each item with its documented IC50.

1) Nc1ccc(C(=O)Nc2ccc(Nc3ccn4ncc(-c5ccc(F)cc5)c4n3)cc2)cc1 : 1000 to 10000 nM
2) COc1ccc(Nc2ccn3ncc(-c4cccc(C(=O)NCCO)c4)c3n2)cn1 : 1000 to 10000 nM
3) COc1ccc(-c2cnn3ccc(NCc4cccnc4)nc23)cc1 : 1000 to 10000 nM
4) CS(=O)(=O)Nc1cccc(-c2cnn3ccc(Nc4ccc(Oc5ccccc5)cc4)nc23)c1 : 1000 to 10000 nM
5) COc1ccc(Nc2ccn3ncc(-c4cccc(NS(C)(=O)=O)c4)c3n2)cn1 : 1000 to 10000 nM
6) Fc1ccccc1-c1cnn2ccc(NCc3cccnc3)nc12 : 1000 to 10000 nM

Hi there! I need IC50 for each item below, if you can.
1. COc1cccc(-c2cnn3ccc(Nc4ccccc4)nc23)c1
2. COc1cncc(-c2cnn3ccc(Nc4ccc(O)cc4)nc23)c1
3. CC(C)c1ccc(Nc2ccn3ncc(-c4ccncc4)c3n2)cc1
4. CCN(CC)CCCNc1ccn2ncc(-c3ccc(C)c(Cl)c3)c2n1
5. CC(C)c1ccc(Nc2ccn3ncc(-c4cccc(CO)c4)c3n2)cc1
6. Cc1ccc(S(=O)(=O)Nc2ccc(Nc3ccn4ncc(-c5cccnc5)c4n3)cc2)cc1
7. Oc1cccc(-c2cnn3ccc(Nc4cccc(Cl)c4)nc23)c1

[A]
["1000 to 10000 nM", "< 1000 nM", "1000 to 10000 nM", "1000 to 10000 nM", "1000 to 10000 nM", "< 1000 nM", "1000 to 10000 nM"]

Could you tell me IC50 for each of these molecules? They are listed below.
1. COc1ccc(-c2cnn3ccc(Nc4ccc(OC)nc4)nc23)cc1
2. CC(=O)c1cccc(-c2cnn3ccc(Nc4ccc(C(C)C)cc4)nc23)c1
3. COc1cncc(-c2cnn3ccc(Nc4ccc(N5CCOCC5)cc4)nc23)c1
4. OCc1cccc(-c2cnn3ccc(Nc4cccc(Cl)c4)nc23)c1
5. Cc1ccc(Nc2ccn3ncc(-c4cccc(O)c4)c3n2)cc1NS(C)(=O)=O
6. Cn1cc(-c2cnn3ccc(Nc4ccccc4)nc23)cn1
7. OCc1cccc(-c2cnn3ccc(Nc4ccccc4)nc23)c1

[A]
1. 1000 to 10000 nM
2. 1000 to 10000 nM
3. < 1000 nM
4. 1000 to 10000 nM
5. < 1000 nM
6. < 1000 nM
7. < 1000 nM
